The measurements presented in this section are drawn from ChEMBL document CHEMBL5236571.

# TARGET_OR_TEST_SYSTEM: r(CUG) repeat expansion
# MEASUREMENT_DESCRIPTION: Inhibition of d(CTG.CAG)90 transcription (unknown origin) assessed as inhibition of r(CUG)90 formation incubated for 3.5 hrs measured after 1.5 hrs in presence of T7 RNA polymerase by SDS-PAGE analysis
pIC50: −log10 of the molar value.
This listing pairs compounds with measured pIC50.
OBSERVED_PROPERTY: pIC50

• COc1ccc2nc3cc(Cl)ccc3c(NC/C=N/CCCCNc3nc(N)nc(NCCCC/N=C/c4ccc(CNc5nc(N)nc(N)n5)cc4)n3)c2c1 = 4.36
• N=C(NCCCCNc1nc(N)nc(NCc2ccc(/C=N/CCCCn3cnc4c(N)ncnc43)cc2)n1)c1ccc(C(=N)NCCCCNc2nc(N)nc(NCc3ccc(/C=N/c4ccc(CNC(=N)c5ccc(C(=N)NCc6ccc(N)cc6)cc5)cc4)cc3)n2)cc1 = 4.47
• N=C(NCCCCNc1nc(N)nc(NCc2ccc(/C=N/c3ccc(CNc4nc(N)nc(NCc5ccc(N)cc5)n4)cc3)cc2)n1)c1ccc(C(=N)NCCCCNc2nc(N)nc(NCc3ccc(CO)cc3)n2)cc1 = 4.59
• COc1ccc2nc3cc(Cl)ccc3c(NC/C=N/CCCCNC(=O)c3cccc4c(NCCCCNc5nc(N)nc(N)n5)c5ccccc5nc34)c2c1 = 4.44
